The compounds below have reported IC50 for Rho-associated protein kinase 1 (Homo sapiens).

{"columns": ["MOLECULAR STRING", "TARGET ENTITY", "IC50"],
 "data": [
  ["Cc1n[nH]cc1-c1cc2nc([C@H]3CC4CCN3CC4)[nH]c(=O)c2s1", "Rho-associated protein kinase 1 (Homo sapiens)", "460 nM"],
  ["Cc1n[nH]cc1-c1cc2nc([C@H]3CCCCN3)[nH]c(=O)c2s1", "Rho-associated protein kinase 1 (Homo sapiens)", "370 nM"],
  ["Cc1n[nH]cc1-c1cc2nc([C@@H]3CCC(C)(C)N3)[nH]c(=O)c2s1", "Rho-associated protein kinase 1 (Homo sapiens)", "1500 nM"],
  ["Cc1n[nH]cc1-c1cc2nc([C@]3(C)CCCN3)[nH]c(=O)c2s1", "Rho-associated protein kinase 1 (Homo sapiens)", "270 nM"],
  ["Cc1n[nH]cc1-c1cc2nc([C@@H]3CCCN3)[nH]c(=O)c2s1", "Rho-associated protein kinase 1 (Homo sapiens)", "360 nM"],
  ["Cc1n[nH]cc1-c1cc2nc(C34CC(CN3)C4)[nH]c(=O)c2s1", "Rho-associated protein kinase 1 (Homo sapiens)", "220 nM"],
  ["Cc1n[nH]cc1-c1cc2nc([C@@H]3C[C@H](C)CN3)[nH]c(=O)c2s1", "Rho-associated protein kinase 1 (Homo sapiens)", "630 nM"],
  ["Cc1n[nH]cc1-c1cc2nc(C34CCC(CC3)N4)[nH]c(=O)c2s1", "Rho-associated protein kinase 1 (Homo sapiens)", "96 nM"]
]}
